Listed next: entries and their corresponding switch fluorescence ratio.
System: ATP;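 further: ATP exposure 15 min at 22 °C before imaging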
Test: switch fluorescence ratio, 500 uM ATP over buffer (Cy3 cluster intensity, sum of 5 cycles each) (fold (ratio)); higher = stronger signal-on switching upon ATP binding; sequences stand for … in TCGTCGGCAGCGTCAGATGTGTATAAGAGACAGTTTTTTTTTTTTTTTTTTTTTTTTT…TC
Conditions: aptamer strand: ATP DNA aptamer (quencher-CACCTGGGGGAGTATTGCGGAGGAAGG + anchor), 100 nM annealed; ATP concentration: 500 uM
Respond using a number only.

Illustrative cases are given below, each with its answer.
| ORDERED RESIDUES | switch fluorescence ratio |
| --- | --- |
| AAATGGGAGG | 0.996 |
| ATATGTTGAG | 1 |
| TAAGGTTATG | 0.973 |

Query string: Need switch fluorescence ratio, item TATATCTAAA
Result string: 0.973

* * *

Tested on: ATP;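 further: ATP exposure 15 min at 22 °C before imaging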
Assay: switch fluorescence ratio, 500 uM ATP over buffer (Cy3 cluster intensity, sum of 5 cycles each) (fold (ratio)); higher = stronger signal-on switching upon ATP binding; sequences stand for … in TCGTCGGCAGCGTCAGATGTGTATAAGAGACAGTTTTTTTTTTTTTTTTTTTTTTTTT…TC
Conditions: aptamer strand: ATP DNA aptamer (quencher-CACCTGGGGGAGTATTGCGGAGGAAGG + anchor), 100 nM annealed; ATP concentration: 500 uM
READOUT LABEL: switch fluorescence ratio
Respond using a number only.

| ORDERED RESIDUES | switch fluorescence ratio |
| --- | --- |
| CGTCCTGGCT | 1.02 |
| TAGGGGACCG | 0.991 |
| CTTATGATTT | 0.998 |
| TCGTGGTGGG | 0.994 |
| TAATGGACAA | 1.04 |
| ATACCGTGAG | 1.05 |

Query string: # value lookup — system ATP, readout switch fluorescence ratio, item TCAGTTGTCA;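 further: ATP exposure 15 min at 22 °C before imaging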
Result string: 0.981

Query string: # value lookup — system ATP, readout switch fluorescence ratio, item ATGGATTTAT;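 further: ATP exposure 15 min at 22 °C before imaging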
Result string: 0.992

Query string: # value lookup — system ATP, readout switch fluorescence ratio, item CCCTATCAAT;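 further: ATP exposure 15 min at 22 °C before imaging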
Result string: 1.1

Query string: # value lookup — system ATP, readout switch fluorescence ratio, item GTTGTCGTAT;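 further: ATP exposure 15 min at 22 °C before imaging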
Result string: 0.974

Query string: # value lookup — system ATP, readout switch fluorescence ratio, item AATGGGGGTG;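 further: ATP exposure 15 min at 22 °C before imaging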
Result string: 1.02

* * *

Test system: ATP;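 further: ATP exposure 15 min at 22 °C before imaging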
Test: switch fluorescence ratio, 500 uM ATP over buffer (Cy3 cluster intensity, sum of 5 cycles each) (fold (ratio)); higher = stronger signal-on switching upon ATP binding; sequences stand for … in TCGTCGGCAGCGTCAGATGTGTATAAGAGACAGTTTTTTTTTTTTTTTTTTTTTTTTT…TC
Conditions: aptamer strand: ATP DNA aptamer (quencher-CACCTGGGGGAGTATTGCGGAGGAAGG + anchor), 100 nM annealed; ATP concentration: 500 uM
Listed next: entries and their corresponding switch fluorescence ratio.
Respond using a number only.

| ORDERED RESIDUES | switch fluorescence ratio |
| --- | --- |
| ATTGCCCACC | 1.03 |

Query string: Need switch fluorescence ratio, item ATTGTAATAG
Result string: 1.04

Query string: Need switch fluorescence ratio, item TCGGAGGGTT
Result string: 1.02

Query string: Need switch fluorescence ratio, item CGATGGCGTT
Result string: 0.96

Query string: Need switch fluorescence ratio, item TTGAAATCGC
Result string: 1.01

Query string: Need switch fluorescence ratio, item GTTCTGGGGC
Result string: 0.986

Query string: Need switch fluorescence ratio, item AAAGGTGATG
Result string: 0.978

Query string: Need switch fluorescence ratio, item TCGCTGCGGA
Result string: 1.01

Query string: Need switch fluorescence ratio, item TCCGAAACAT
Result string: 1.57

Query string: Need switch fluorescence ratio, item AGGTAGATGG
Result string: 0.995

Query string: Need switch fluorescence ratio, item TAATTGGTGC
Result string: 1.05

Query string: Need switch fluorescence ratio, item AGTAAGATTT
Result string: 1.16

Query string: Need switch fluorescence ratio, item TTTTTGGTGC
Result string: 1.04

Query string: Need switch fluorescence ratio, item TTTAGGGGGG
Result string: 1.01

Query string: Need switch fluorescence ratio, item ATATGTATGG
Result string: 0.968

Query string: Need switch fluorescence ratio, item TGCTGTCTGT
Result string: 0.99

Query string: Need switch fluorescence ratio, item ATTTGATAGT
Result string: 1.01

Query string: Need switch fluorescence ratio, item AAATTAGCTT
Result string: 0.987

Query string: Need switch fluorescence ratio, item GAAGGTGGTG
Result string: 0.961

Query string: Need switch fluorescence ratio, item AAAAGATATT
Result string: 0.996

Cited source for all entries: the supplement of paper PMC10126150
